# Tested on: SARS-CoV-2 low-rank motif (SARS-low)
# measurementProtocol: normalised indicator fluorescence (fraction of RNA + indicator signal without compound); higher = less displacement of indicator (weaker competition)
# conditionNotes: compound concentration: 5 uM; 30 min; indicator: TO-PRO-1 0.1 uM; RNA concentration: 0.1 uM
propertyName: normalised indicator fluorescence
Give only the figure.

Answered examples (9):
| compoundStructure | numericValue |
| --- | --- |
| CN1CCN(c2nc(C3=C(c4c[nH]c5ccccc45)C(=O)NC3=O)c3ccccc3n2)CC1 | 1.4 |
| O=c1c(O)c(-c2cc(O)c(O)c(O)c2)oc2cc(O)cc(O)c12 | 0.808 |
| COC1=CC(=O)c2ccccc2C1=O | 1.19 |
| CCOc1cc(C(=O)N2CCC(N3CCN(C)CC3)CC2)ccc1Nc1ncc2c(n1)N(C1CCCC1)c1ccccc1C(=O)N2C | 1.2 |
| CC(=O)CCCCn1c(=O)c2c(ncn2C)n(C)c1=O | 1.23 |
| NC(=O)N/N=C/c1ccc([N+](=O)[O-])o1 | 1.11 |
| O=C(Nc1ccc2[nH]nc(-c3ccncc3)c2c1)[C@@H]1CCN(CC(=O)N2CCN(c3ccc(-c4ncccn4)cc3)CC2)C1 | 1.11 |
| O=C1C[C@@H](c2ccc(O)cc2)Oc2cc(O)cc(O)c21 | 1.03 |
| Cc1c(C)c2c(c(C)c1O)CC[C@@](C)(CCC[C@H](C)CCC[C@H](C)CCCC(C)C)O2 | 1.07 |

Turning now to a further molecule:
Requested read-out: normalised indicator fluorescence. Entry: O=c1cc(-c2ccc(O)c(-c3c(O)cc(O)c4c(=O)cc(-c5ccc(O)cc5)oc34)c2)oc2cc(O)cc(O)c12 1.31

* * *

normalised indicator fluorescence reference
# Test system: SARS-CoV-2 low-rank motif (SARS-low)
# measurementProtocol: normalised indicator fluorescence (fraction of RNA + indicator signal without compound); higher = less displacement of indicator (weaker competition)
# conditionNotes: compound concentration: 5 uM; 30 min; indicator: TO-PRO-3 0.5 uM; RNA concentration: 0.5 uM
Counter-ions that a name gives are not always drawn.
Give only the figure.

Answered examples (5):
| molecule | normalised indicator fluorescence |
| --- | --- |
| Cn1cc(-c2ccc3c(c2)CCN3C(=O)Cc2cccc(C(F)(F)F)c2)c2c(N)ncnc21 | 1.24 |
| CCc1cc(C(N)=S)ccn1 [Ethinamide] | 1.12 |
| Oc1ccc(OCc2ccccc2)cc1 [Monobenzone] | 1.21 |
| COc1ccc(C(=C2C(=O)Nc3ccccc32)c2ccc(OC)cc2)cc1 | 1.17 |
| O=c1c(O)c(-c2ccccc2)oc2cc(O)cc(O)c12 [Galangin] | 1.28 |

Requested read-out: normalised indicator fluorescence. Entry: Oc1cc(O)c2c(c1)O[C@H](c1ccc(O)c(O)c1)[C@@H](O)C2 [(+)-Catechin Hydrate] 1.16

Requested read-out: normalised indicator fluorescence. Entry: CC(=O)c1ccc(S(=O)(=O)NC(=O)NC2CCCCC2)cc1 [Acetohexamide] 1.12

Requested read-out: normalised indicator fluorescence. Entry: Cc1c(F)cc(C(=O)NC2CC2)cc1-c1ccc(C(=O)NCC(C)(C)C)cn1 [Losmapimod] 1.04

Requested read-out: normalised indicator fluorescence. Entry: CO[C@@H]1[C@H](N(C)C(=O)c2ccccc2)C[C@H]2O[C@]1(C)n1c3ccccc3c3c4c(c5c6ccccc6n2c5c31)C(=O)NC4 [Midostaurin] 1.35

Requested read-out: normalised indicator fluorescence. Entry: NC(=O)c1ccc(N(C(N)=O)c2c(F)cccc2F)nc1-c1ccc(F)cc1F 1.21

Requested read-out: normalised indicator fluorescence. Entry: Oc1ccc(-c2nc(-c3ccc(F)cc3)c(-c3ccncc3)[nH]2)cc1 1.23

Requested read-out: normalised indicator fluorescence. Entry: O=CN1CC/C(=C/c2ccc3c(c2)OCO3)C1=O 1.08

Requested read-out: normalised indicator fluorescence. Entry: CCNC(=O)c1noc(-c2cc(C(C)C)c(O)cc2O)c1-c1ccc(CN2CCOCC2)cc1 [Luminespib] 1.09

Requested read-out: normalised indicator fluorescence. Entry: O=C1c2c(O)cc(O)cc2OC(c2ccc(O)c(O)c2)C1O (configuration not stated) [Taxifolin] 1.31

Requested read-out: normalised indicator fluorescence. Entry: Cn1cc(C2=C(c3cn(CCCSC(=N)N)c4ccccc34)C(=O)NC2=O)c2ccccc21 [Ro 31-8220 Mesylate] 1.01

Requested read-out: normalised indicator fluorescence. Entry: CC(C)(O)[C@@H]1CC[C@](C)([C@H]2[C@@H](O)C[C@@]3(C)[C@@H]4C[C@H](O)[C@H]5C(C)(C)[C@@H](O[C@@H]6OC[C@@H](O)[C@H](O)[C@H]6O[C@@H]6O[C@H](CO)[C@@H](O)[C@H](O)[C@H]6O)CC[C@@]56C[C@@]46CC[C@]23C)O1 [Astragaloside III] 0.988

Requested read-out: normalised indicator fluorescence. Entry: O=C(O)/C=C/c1ccc(Cn2ccnc2)cc1 [Ozagrel hydrochloride] 1.09
